Target: TFPI (Homo sapiens)
Assay: % Inhibition @ 2.5µM
Below, each entry is listed with its recorded % Inhibition @ […].
Quantity: % Inhibition @ […] (%)

| Substance | Quantity | Measured number |
| --- | --- | --- |
| Ac-SGYASFPLAVQLHVSKRSKEMALARAYYKTS-NH2 (SEQ ID NO: 2021) [JBT0685] | % Inhibition @ […] | 4 |
| Ac-SGYASFPLAVQLHVSKRSKEMALARLAYKTS-NH2 (SEQ ID NO: 2140) [JBT0686] | % Inhibition @ […] | 3 |
| Ac-SGYASFPLAVQLHVAKRSKEMALARLYYKTS-NH2 (SEQ ID NO: 2008) [JBT0674] | % Inhibition @ […] | 10 |
| Ac-SGYASFPLAVQLHVSARSKEMALARLYYKTS-NH2 (SEQ ID NO: 2136) [JBT0675] | % Inhibition @ […] | 0 |
| Ac-SGYASFPLAVQLHVSKASKEMALARLYYKTS-NH2 (SEQ ID NO: 2137) [JBT0676] | % Inhibition @ […] | 0 |
| Ac-SGYASFPLAVQLHVSKRAKEMALARLYYKTS-NH2 (SEQ ID NO: 2009) [JBT0677] | % Inhibition @ […] | 4 |

The origin of these recorded values is patent US10201586B2.
